Target: Potassium voltage-gated channel subfamily KQT member 1 (Homo sapiens) (UniProt P51787)
Sequence (P51787 whole entry, looked up): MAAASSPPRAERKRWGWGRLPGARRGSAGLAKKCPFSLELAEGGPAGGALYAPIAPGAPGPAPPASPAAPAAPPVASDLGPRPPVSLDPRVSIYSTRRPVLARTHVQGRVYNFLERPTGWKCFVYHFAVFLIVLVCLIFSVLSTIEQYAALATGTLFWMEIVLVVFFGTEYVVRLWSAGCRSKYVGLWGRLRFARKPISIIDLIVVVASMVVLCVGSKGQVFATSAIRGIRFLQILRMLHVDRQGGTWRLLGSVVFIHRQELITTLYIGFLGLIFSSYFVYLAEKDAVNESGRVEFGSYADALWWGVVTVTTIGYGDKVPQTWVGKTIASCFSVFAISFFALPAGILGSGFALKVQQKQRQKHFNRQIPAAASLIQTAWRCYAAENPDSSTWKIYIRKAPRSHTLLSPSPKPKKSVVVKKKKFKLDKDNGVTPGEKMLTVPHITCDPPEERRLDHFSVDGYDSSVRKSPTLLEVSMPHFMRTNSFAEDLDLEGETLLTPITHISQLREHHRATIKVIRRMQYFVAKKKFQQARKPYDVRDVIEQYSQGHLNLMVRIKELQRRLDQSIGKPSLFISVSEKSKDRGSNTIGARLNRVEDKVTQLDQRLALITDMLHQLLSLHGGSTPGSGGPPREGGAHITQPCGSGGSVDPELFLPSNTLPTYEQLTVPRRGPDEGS
Experiment: KCNQ1 potassium channel potentiators, confirmation, FluxOR thallium flux, CHO cells, duplicates (AID 493007);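 on potentiation: 0% = buffer-only wells and 100% = R-L3 activator control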
Details: KCNQ1 cell line, FluxOR thallium flux fluorescence, at 10 µM; stronger effect = higher value, % of reference activator effect, buffer zero
Active and inactive are the calls of the source.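 How the source made its calls: active means potentiation averaged over duplicate wells exceeding buffer-only control mean by more than 3 SD; inactive means the rest.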
reported-property: potentiation

Please give the measured potentiation for this compound: CCC1CCC2(CC1)NNC(=S)NN2 inactive

Please give the measured potentiation for this compound: O=C(COC(=O)C12CC3CC(CC(C3)C1)C2)NCCCc1ccccc1 inactive

Please give the measured potentiation for this compound: CCOC(=O)c1c(C)nc2sc3c(=O)n(-c4ccc(OC)cc4)cnc3c2c1-c1ccc(OC)cc1 inactive

Please give the measured potentiation for this compound: Cc1ccccc1-c1nc(Cc2ccc(Cl)cc2)no1 inactive

Please give the measured potentiation for this compound: CN(C)CCCNc1cc(-c2ccccc2)nc2cc(-c3cccc(F)c3)nn12 57% (active)

Next:
Please give the measured potentiation for this compound: O=C(CSc1nnc(-c2ccco2)o1)Nc1cccc([N+](=O)[O-])c1 inactive

* * *

Experiment: thallium flux activation in parental CHO cells, counter-screen for KCNQ1 potentiator project (AID 493006);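 on activation: fluorescence ratio of max minus min over baseline after K+ and Tl+ depolarization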
Settings: parental CHO-K1 cells, FluxOR thallium flux, at 10 µM; stronger effect = higher value
The source made the active and inactive calls.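 How the source made its calls: active means duplicate-averaged activation above buffer control mean plus 5 SD of those controls; inactive means the rest.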
reported-property: activation

// worked examples, activation included
Please give the measured activation for this molecule: Cc1cccn2c(=O)nc(SCC(=O)N3N=C(c4cccs4)CC3c3ccc(F)cc3)nc12 (stereo not drawn) inactive

Please give the measured activation for this molecule: COc1ccc(C2SCC(=O)N2c2nc3ccccc3s2)cc1 (stereo not drawn) inactive

Please give the measured activation for this molecule: COc1ccc(C(=O)NC(=S)N2CCC(C)CC2)cc1Br 185% (active)

Please give the measured activation for this molecule: COc1ccc(-c2csc(N(CCCN(C)C)C(=O)c3ccccc3C)n2)cc1 inactive

Please give the measured activation for this molecule: COc1ccc(C)cc1N=Nc1ccc(O)c2ncccc12 inactive

Please give the measured activation for this molecule: COc1ccc(CNC(=O)c2cc3c(=O)n4ccccc4nc3n(CC3CCCO3)c2=N)cc1 (stereo not drawn) inactive

Please give the measured activation for this molecule: Oc1ccc(N=Nc2ccc3c(c2)OCCO3)c2cccnc12 261% (active)

Please give the measured activation for this molecule: COc1cc(OC)cc(C(=O)N[C@H](C(=O)OCC(=O)NC(C)c2ccccc2)C(C)C)c1 (stereo partly drawn) inactive

Please give the measured activation for this molecule: CCOc1ccc(C(C#N)N2CCOCC2)cc1OC (stereo not drawn) inactive

Please give the measured activation for this molecule: O=c1cc(N2CCc3ccccc32)[nH]c(=O)n1Cc1ccc(F)cc1 inactive

Next:
Please give the measured activation for this molecule: CCOC(=O)C1=C(O)c2ccccc2C(=O)/C1=C\c1ccc(CC)cc1 177% (active)

Please give the measured activation for this molecule: CCc1ccc2[nH]c(O)c(N=Nc3nc(-c4ccccc4)cs3)c2c1 186% (active)

Please give the measured activation for this molecule: Cc1cccc(-c2n[nH]c(=S)n2/N=C/c2cccs2)c1 138% (active)

Please give the measured activation for this molecule: CCOc1ccc(NC(=O)Cn2sc3nc(C)cc(C)c3c2=O)cc1 142% (active)

Please give the measured activation for this molecule: Cc1ccc2nc(NC(=O)c3ccc(Br)o3)sc2c1 inactive

Please give the measured activation for this molecule: CCCN(CCC)C(=S)NC(=O)c1ccc(-c2ccccc2)cc1 436% (active)

Please give the measured activation for this molecule: O=c1c2cc(Br)ccc2nc(-c2ccc([N+](=O)[O-])cc2)n1O 346% (active)

Please give the measured activation for this molecule: O=C(NNC(=O)c1cc(-c2ccccc2)nn1-c1ccccc1)c1ccccc1 inactive

Please give the measured activation for this molecule: COc1ccc(CCNC(=O)CCOc2cc(C)ccc2C)cc1OC inactive

Please give the measured activation for this molecule: COc1ccc2c(-c3ccccc3)cc(=S)[nH]c2c1 210% (active)
